System: MOLT-4
Test: Tested for cytostatic activity against Leukemia MOLT-4 cell line of NCI 60 tumor cell line panel
Type: functional
Conditions: Homo sapiens
MEASUREMENT TYPE: GI50 (µM)
# unit: µM | format: bare number

Reported GI50 for `COc1ccc(-c2csc3c2-n2cccc2C3=O)cc1` : what is it?
0.0398

Which GI50 value is on record for `O=C1c2scc(-c3ccccc3)c2-n2cccc21` ?
12.6

Look at this compound and give its reported GI50. `O=C1c2scc(-c3ccc(F)cc3)c2-n2cccc21`
25.1

Item `O=C1c2scc(-c3ccc(Cl)cc3)c2-n2cccc21` has what recorded GI50?
79.4

* * *

Tested on: Hs-578T
Experiment: Tested for cytostatic activity against Breast Hs 578.T cell line of NCI 60 tumor cell line panel
Assay type: functional
Conditions: Homo sapiens
Field: GI50. Provide a value for each of the molecules that follow.
Could you give me the number in µM? Just the number is fine.

For the molecule `O=C1c2scc(-c3ccc(Cl)cc3)c2-n2cccc21` , what GI50 is on record?
2

Item under review: `O=C1c2scc(-c3ccc(F)cc3)c2-n2cccc21` . Reported GI50?
20

Please report the recorded GI50 for `COc1ccc(-c2csc3c2-n2cccc2C3=O)cc1` .
0.0501

Please look up its GI50: `O=C1c2scc(-c3ccccc3)c2-n2cccc21`
5.01

* * *

Can you tell me GI50 for the items I'm about to list?
Tested on: SF-295
Experiment: Tested for cytostatic activity against Central nervous system SF-295 cell line of NCI 60 tumor cell line panel
Format: functional
Conditions: Homo sapiens
Please state the figure in µM; there is no need to write the unit.

Query the reported GI50 for SF-295; item: `O=C1c2scc(-c3ccccc3)c2-n2cccc21`
20

Find GI50 (SF-295) for the entry `COc1ccc(-c2csc3c2-n2cccc2C3=O)cc1`
0.0398

Checklist item: GI50 tested on SF-295, entry `O=C1c2scc(-c3ccc(F)cc3)c2-n2cccc21` , value?
25.1

* * *

Assay: Inhibition of tubulin polymerization
Type: functional
MEASUREMENT TYPE: IC50 (µM)
A number alone suffices; assume µM.

If you can, please state the reported IC50 value of `COc1cc([C@@H]2c3cc4c(cc3C[C@H]3COC(=O)[C@@H]32)OCO4)cc(OC)c1OC` .
2.4

The reported measurements were obtained from ChEMBL document CHEMBL1133918.
